FYI, the data here is from patent US20260015358A1.

Measured pIC50, listed per entry for reference.
TESTED SYSTEM: WRN [UniPro: Q14191 (WRN_HUMAN), N500-C946] (Homo sapiens (Human))
Sequence (Q14191 500-946): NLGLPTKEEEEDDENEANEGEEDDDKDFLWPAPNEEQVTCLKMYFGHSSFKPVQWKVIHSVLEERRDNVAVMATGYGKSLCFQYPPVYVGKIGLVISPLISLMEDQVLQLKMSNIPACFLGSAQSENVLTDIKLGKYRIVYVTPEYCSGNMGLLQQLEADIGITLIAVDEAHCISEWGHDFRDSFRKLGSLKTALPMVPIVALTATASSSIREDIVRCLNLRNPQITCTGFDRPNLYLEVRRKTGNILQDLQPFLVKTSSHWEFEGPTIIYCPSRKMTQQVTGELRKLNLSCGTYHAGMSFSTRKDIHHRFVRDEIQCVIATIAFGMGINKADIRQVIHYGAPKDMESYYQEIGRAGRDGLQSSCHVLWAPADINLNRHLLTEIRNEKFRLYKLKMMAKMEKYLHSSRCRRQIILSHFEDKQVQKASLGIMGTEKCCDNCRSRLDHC
ASSAY EXPLANATION: WRN unwinding assay (FORKF DNA, fluorescence)
Type: biochemical
COND: Table 14
Experimental: WRN unwinding assay was initiated to evaluate potential inhibitory effect of compounds for WEN helicase activity. WRN [UniPro: Q14191 (WRN_HUMAN), N500-C946] was expressed and purified in insect system and stored at −80° C. in aliquots. […] Average fluorescence signal of high control (Wells with 1% DMSO) was calculated as High Control (HC). Average fluorescence signal of low control (Wells with no WRN protein) was calculated as Low control (LC). […]
pIC50: −log10 of the molar value.

CCc1c(N2CCN(C(=O)c3ccnc4cc[nH]c34)CC2)c(=O)n2nc(C3=CCOCC3)nc2n1CC(=O)Nc1ccc(Cl)cc1C(F)(F)F [Example 68]: 6.00 to 7.00
CCc1c(N2CCN(C(=O)CNC(=O)CC3CCC3)CC2)c(=O)n2nc(C3=CCOCC3)nc2n1CC(=O)Nc1ccc(C(F)(F)F)cc1Cl [Example 272]: > 7.00
CCc1c(N2CC3CN(C(=O)CNC(=O)c4ccccc4F)CC3C2)c(=O)n2nc(C3=CCOCC3)nc2n1CC(=O)Nc1ccc(C(F)(F)F)cc1Cl (stereo not shown) [Example 140]: < 6.00
CCc1c(N2CCN(C(=O)C(=O)NC3CC3)CC2)c(=O)n2nc(C3=CCOCC3)nc2n1CC(=O)Nc1ccc(C(F)(F)F)cc1Cl [Example 359]: 6.00 to 7.00
CCc1c(N2CCN(C(=O)CNC(=O)c3cscn3)CC2)c(=O)n2nc(C3=CCOCC3)nc2n1CC(=O)Nc1ccc(C(F)(F)F)cc1Cl [Example 129]: > 7.00

Please find the next molecule below.
# input Requested field: pIC50. Item: CCc1c(N2CCN(C(=O)c3c[nH]c(=O)n(C)c3=O)CC2)c(=O)n2nc(C3=CCOCC3)nc2n1CC(=O)Nc1ccc(C(F)(F)F)cc1Cl [Example 43]
# output > 7.00
